Exercise: state measured relative viability for each of the compounds provided.
tested on: PC-14; assay: relative viability (nuclei count vs DMSO), 5 days (fraction); higher = more cells survive; details: first compound 6.325 µM
Give the figure by itself; no unit, no explanation.

Query Cc1csc(=NC2CCCCC2)n1/N=C/c1ccc(O)c(O)c1O [MIM1] + O=C(CCCCCCC(=O)Nc1ccccc1)NO [Vorinostat] (partner 1 µM) yields relative viability of 0.456

Query Cc1csc(=NC2CCCCC2)n1/N=C/c1ccc(O)c(O)c1O [MIM1] + CC(=O)c1c(C)c2cnc(Nc3ccc(N4CCNCC4)cn3)nc2n(C2CCCC2)c1=O [Palbociclib] (partner 0.5 µM) yields relative viability of 0.454

Query Cc1csc(=NC2CCCCC2)n1/N=C/c1ccc(O)c(O)c1O [MIM1] + NC(=O)Nc1cc(-c2cccc(F)c2)sc1C(=O)N[C@H]1CCCNC1 [AZD7762] (partner 0.2 µM) yields relative viability of 0.311

Query Cc1csc(=NC2CCCCC2)n1/N=C/c1ccc(O)c(O)c1O [MIM1] + CS(=O)(=O)N1CCN(Cc2cc3nc(-c4cccc5[nH]ncc45)nc(N4CCOCC4)c3s2)CC1 [Pictilisib] (partner 1 µM) yields relative viability of 0.55

Query Cc1csc(=NC2CCCCC2)n1/N=C/c1ccc(O)c(O)c1O [MIM1] + CCNC(=O)c1noc(-c2cc(C(C)C)c(O)cc2O)c1-c1ccc(CN2CCOCC2)cc1 [Luminespib] (partner 0.01 µM) yields relative viability of 0.115

Query Cc1csc(=NC2CCCCC2)n1/N=C/c1ccc(O)c(O)c1O [MIM1] + Cc1nc(Nc2ncc(C(=O)Nc3c(C)cccc3Cl)s2)cc(N2CCN(CCO)CC2)n1 [Dasatinib] (partner 0.075 µM) yields relative viability of 0.233

Query Cc1csc(=NC2CCCCC2)n1/N=C/c1ccc(O)c(O)c1O [MIM1] + CC(C)C[C@H](NC(=O)[C@H](Cc1ccccc1)NC(=O)c1cnccn1)B(O)O [Bortezomib] (partner 0.002 µM) yields relative viability of 0.692

The measurements presented in this section are drawn from the supplement of paper PMC10307832.
